The reported measurements were obtained from ChEMBL document CHEMBL1201862.

Tested on: NCI-H460
test-details: NCI tumour cell line growth inhibition, 48 h
The source made the active and inactive calls. Cut-off read from the data, not from the text of the source: active = GI50 up to about 1.1 µM and inactive = higher.
Would you mind answering with one of these outcomes? active, inactive

Reference set (4 entries):
molecule: Cc1ccccc1S(=O)(=O)OC1NS(=O)(=O)c2ccccc21 (configuration not stated)
class: inactive

molecule: CC1(C)[C@@H]2C[C@H]1[C@@H](Cc1cccc(C[C@H]3c4cc(-c5ccccn5)ncc4[C@H]4C[C@@H]3C4(C)C)c1)c1cc(-c3ccccn3)ncc12
class: active

molecule: O=C1NN=CN2C(=O)CCC12 (configuration not stated)
class: inactive

molecule: COc1cccc(C2c3cc4c(cc3OC(N3CCCC3)C2C)OCO4)c1O (configuration not stated)
class: inactive

*Q* // return assay outcome for NC(=O)NC(=O)CCC(NS(=O)(=O)c1ccccc1)C(=O)NC(N)=O (configuration not stated)
*A* inactive

*Q* Please answer likewise for O=C(/C=C(\O)C(=O)O)/C=C(\O)c1ccccc1
*A* inactive

*Q* Please answer likewise for Cc1nn(-c2ccccc2)c2nc3c(c(C)nn3-c3ccccc3)c(-c3ccc(C(F)(F)F)cc3)c12
*A* inactive

*Q* Please answer likewise for COc1cccc2c(=O)c3c(O)c4cc(N(C)C)ccc4c(OC(C)=O)c3oc12
*A* inactive

*Q* Please answer likewise for CNc1ccc([N+](=O)[O-])c2c(NCCCN(C)C)ccnc12
*A* inactive

*Q* Please answer likewise for N#Cc1c(N)c2c(c(-c3ccccc3)c1-c1ccccc1)C(=O)N(NC(=S)Nc1ccccc1)C2=O
*A* inactive

*Q* Please answer likewise for C1CSCCSCCS1
*A* inactive

*Q* Please answer likewise for C#CCNC(CCCNC(=N)N)C(=O)O (configuration not stated)
*A* inactive

*Q* Please answer likewise for Cn1cnc(C(N)=[Se])c1N
*A* active

*Q* Please answer likewise for Cc1[nH]c2ccccc2c1/C=C/c1c(C)[nH]c2ccccc12
*A* inactive

*Q* Please answer likewise for Cc1nnc2n(c1=O)CCCN2C
*A* inactive
